Sourced from patent US9815831B2

# target or system: human recombinant Met kinase (Homo sapiens)
# Construct: purchased Cell Signalling Technology, Beverly, Mass
# Sequence (P08581 25-1390): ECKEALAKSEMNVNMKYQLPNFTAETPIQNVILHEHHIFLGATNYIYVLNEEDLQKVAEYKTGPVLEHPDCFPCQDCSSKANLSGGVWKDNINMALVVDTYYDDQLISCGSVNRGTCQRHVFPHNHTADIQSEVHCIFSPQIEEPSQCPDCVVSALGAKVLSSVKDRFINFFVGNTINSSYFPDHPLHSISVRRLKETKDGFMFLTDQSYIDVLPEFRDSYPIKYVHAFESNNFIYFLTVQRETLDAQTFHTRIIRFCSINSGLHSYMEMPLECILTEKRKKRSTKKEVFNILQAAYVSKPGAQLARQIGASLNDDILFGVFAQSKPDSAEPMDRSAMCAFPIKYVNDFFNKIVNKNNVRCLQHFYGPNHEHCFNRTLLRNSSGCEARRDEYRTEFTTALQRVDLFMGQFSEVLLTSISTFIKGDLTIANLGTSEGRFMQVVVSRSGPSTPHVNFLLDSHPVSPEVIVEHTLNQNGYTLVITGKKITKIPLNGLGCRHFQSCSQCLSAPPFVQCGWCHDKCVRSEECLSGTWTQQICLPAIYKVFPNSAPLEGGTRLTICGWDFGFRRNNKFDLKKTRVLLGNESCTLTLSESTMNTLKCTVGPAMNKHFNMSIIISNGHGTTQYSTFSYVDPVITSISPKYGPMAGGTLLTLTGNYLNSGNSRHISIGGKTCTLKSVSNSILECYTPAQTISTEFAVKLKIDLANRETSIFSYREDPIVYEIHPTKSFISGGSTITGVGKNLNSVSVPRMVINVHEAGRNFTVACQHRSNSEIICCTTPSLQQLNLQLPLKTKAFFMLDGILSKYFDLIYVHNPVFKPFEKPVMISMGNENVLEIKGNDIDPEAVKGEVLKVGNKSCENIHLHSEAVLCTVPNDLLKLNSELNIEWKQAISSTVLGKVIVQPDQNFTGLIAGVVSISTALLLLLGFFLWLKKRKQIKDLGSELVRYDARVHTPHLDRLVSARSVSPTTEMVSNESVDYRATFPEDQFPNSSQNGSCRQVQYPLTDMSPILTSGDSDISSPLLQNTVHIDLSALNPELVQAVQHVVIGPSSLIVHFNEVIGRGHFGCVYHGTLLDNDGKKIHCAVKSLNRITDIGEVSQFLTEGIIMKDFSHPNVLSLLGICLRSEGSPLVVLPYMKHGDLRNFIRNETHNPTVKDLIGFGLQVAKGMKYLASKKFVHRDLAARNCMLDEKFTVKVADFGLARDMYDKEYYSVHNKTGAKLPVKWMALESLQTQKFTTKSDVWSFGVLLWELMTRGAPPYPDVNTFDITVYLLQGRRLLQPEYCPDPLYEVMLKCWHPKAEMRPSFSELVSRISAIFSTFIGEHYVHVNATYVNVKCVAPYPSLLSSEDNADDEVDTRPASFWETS
# assay procedure: Colorimetric determination of c-Met kinase activity (HTScan Met Kinase Assay Kit)
# Format: biochemical
# condition summary: Table 4C; cells marked *: tested @ 300 nM; read-out: c-Met Enzyme % inhibition
# From the text: 1. MET Kinase Assay Protocol: Colorimetric Determination of c-Met Kinase Activity The receptor tyrosine kinase c-Met is a heterodimeric transmembrane glycoprotein involved in several cellular processes that aid in tumor progression. […] c-Met Kinase activity shall be determined using an HTScan® Met Kinase Assay Kit (Cell Signalling Technology, Beverly, Mass.) with modifications. […] Data generated can be analyzed further using Graphpad Prism (Graphpad software, San Diego Calif.) for determination of IC50. […]
endpoint: inhibition

NC(=O)c1ccc(-c2ccc3nnn(Cc4ccc5[nH]c(=O)ccc5c4)c3n2)cc1Cl [Example 1004]; < 25%

According to the records, this molecule NC(=O)c1c(F)cc(-c2ccc3ncn(Cc4ccc5ncccc5c4)c3n2)cc1F [Example 1010] displays inhibition of < 25%

According to the records, this molecule NC(=O)c1ccc(-c2ccc3ncn(Cc4c(F)cc5ncccc5c4F)c3n2)cc1Cl [Example 1023] displays inhibition of 75 to 100%

According to the records, this molecule Cc1nc2ccc(-c3ccc(C(N)=O)c(Cl)c3)nc2n1Cc1ccc2ncccc2c1 [Example 1020] displays inhibition of < 25%
